- TARGET_OR_SYSTEM: human PD1 on cells (human, UniProt Q15116 25-288)
- Sequence (Q15116 25-288 limits assumed): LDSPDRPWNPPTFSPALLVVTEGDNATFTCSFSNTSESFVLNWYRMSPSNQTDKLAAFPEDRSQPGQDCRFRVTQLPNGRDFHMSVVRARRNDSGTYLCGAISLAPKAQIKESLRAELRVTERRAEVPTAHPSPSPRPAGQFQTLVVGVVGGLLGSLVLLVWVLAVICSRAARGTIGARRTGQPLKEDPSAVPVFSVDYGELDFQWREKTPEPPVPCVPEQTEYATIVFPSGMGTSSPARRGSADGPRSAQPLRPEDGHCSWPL
- PROCEDURE_DETAILS: cell-based or functional assay
Recorded measurements of PD1 blocking activity (reporter assay) EC50, one per entry
ATTRIBUTE_MEASURED: PD1 blocking activity (reporter assay) EC50

>  <BINDER>
P-1181 (antibody, human IgG1, kappa, V domains shown) VH: EVQLLESGGGLVQPGGSLRLSCAASGFTFTNYYMYWVRQAPGKGLEWVSGINPSNGGTNFNDSVKGRFTISRDNSKNTLYLQMNSLRAEDTAVYYCARRDYRFDMGFDYWGQGTLVTVSS VL: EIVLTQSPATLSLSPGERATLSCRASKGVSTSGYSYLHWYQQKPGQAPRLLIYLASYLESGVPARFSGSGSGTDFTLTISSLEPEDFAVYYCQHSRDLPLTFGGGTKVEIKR

>  <MEASURED>
9.18 nM

$$$$
>  <BINDER>
P-1178 (antibody, human IgG1, kappa, V domains shown) VH: EVQLLESGGGLVQPGGSLRLSCAASGFTFTNYYMYWVRQAPGKGLEWMGGINPSNGGTNYADKFKGRFTLSTDSSKNTLYLQMNSLRAEDTAVYYCARRDYRFDMGFDYWGQGTLVTVSS VL: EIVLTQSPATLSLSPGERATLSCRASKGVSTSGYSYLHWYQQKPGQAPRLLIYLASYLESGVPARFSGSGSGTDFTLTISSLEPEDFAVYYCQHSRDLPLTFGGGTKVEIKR

>  <MEASURED>
0.68 nM

$$$$
>  <BINDER>
P-1177 (antibody, human IgG1, kappa, V domains shown) VH: EVQLLESGGGLVQPGGSLRLSCAASGFTFTNYYMYWVRQAPGKGLEWMGGINPSNGGTNYADKFKGRFTISRDNSKNTLYLQMNSLRAEDTAVYYCARRDYRFDMGFDYWGQGTLVTVSS VL: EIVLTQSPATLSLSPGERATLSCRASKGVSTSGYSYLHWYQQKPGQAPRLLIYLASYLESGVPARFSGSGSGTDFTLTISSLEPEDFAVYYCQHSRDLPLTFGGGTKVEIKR

>  <MEASURED>
1.51 nM

$$$$
>  <BINDER>
P-1176 (antibody, human IgG1, kappa, V domains shown) VH: EVQLLESGGGLVQPGGSLRLSCAASGFTFTNYYMYWVRQAPGKGLEWVSGINPSNGGTNYADKFKGRFTLSTDSSKNTLYLQMNSLRAEDTAVYYCARRDYRFDMGFDYWGQGTLVTVSS VL: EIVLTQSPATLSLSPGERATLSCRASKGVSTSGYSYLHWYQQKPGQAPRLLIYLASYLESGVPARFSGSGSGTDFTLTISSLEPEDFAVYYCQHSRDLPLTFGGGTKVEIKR

>  <MEASURED>
0.67 nM

$$$$
>  <BINDER>
P-1175 (antibody, human IgG1, kappa, V domains shown) VH: EVQLLESGGGLVQPGGSLRLSCAASGFTFTNYYMYWVRQAPGKGLEWVSGINPSNGGTNYADKFKGRFTISRDNSKNTLYLQMNSLRAEDTAVYYCARRDYRFDMGFDYWGQGTLVTVSS VL: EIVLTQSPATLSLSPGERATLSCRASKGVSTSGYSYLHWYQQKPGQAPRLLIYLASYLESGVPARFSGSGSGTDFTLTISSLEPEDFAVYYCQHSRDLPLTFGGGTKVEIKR

>  <MEASURED>
6.21 nM

$$$$
